- Organism: Homo sapiens
- Assay Explanation: To identify inhibition of the IFN signalling (Jak-Stat) pathway via expression of an eGFP reporter gene under the control of an IFN-stimulated response element (ISRE) containing MxA promoter.
- Format: functional
- Design: scale not given: direction of the effect not stated beside the values
- Reported Conditions: 30 µM
Recorded Endpoint: Percent Effect (%)
Your answer should be a plain number; it is taken to be in %.

Lookup result for COCC(=O)NCc1cc(=O)n2c(n1)CN(CC1CCOC1)CCC2 (stereo not given) ; measured Percent Effect: 8.83

Lookup result for CC(CN1CCCC1)C(=O)N1CCC(c2nccn2CC2CC2)CC1 (stereo not given) ; measured Percent Effect: 5.41

Lookup result for O=C(c1ccc(Cl)o1)N1CCCN(Cc2cscn2)CC1 ; measured Percent Effect: 0.576

Lookup result for c1ccc(CN2CCN(Cc3cscn3)CC2)cc1 ; measured Percent Effect: 7.07

Lookup result for CNC(=O)CN1CCC(NC(=O)N(C)Cc2cc(C)on2)CC1 ; measured Percent Effect: -1.08

Lookup result for O=C(c1cnccn1)N1CCN(Cc2ccncc2)c2ncccc2C1 ; measured Percent Effect: -10.5

Lookup result for O=C(c1ccccc1-n1cccn1)N1CCCN(c2cccnn2)CC1 ; measured Percent Effect: -6.03

Lookup result for COc1ccccc1CC(=O)NS(C)(=O)=O ; measured Percent Effect: 20.4

Lookup result for CCn1c(C)nnc1CN(C)C1CCN(Cc2nccn2C)C1 (stereo not given) ; measured Percent Effect: 16.4

Lookup result for O=C1[C@@H]2CCN(Cc3ccoc3)C[C@@H]2OCCN1Cc1cccnc1 ; measured Percent Effect: -11.6

Lookup result for Cn1cc(CCNC(=O)CCc2ccc3c(c2)OCO3)cn1 ; measured Percent Effect: 8.13

Lookup result for Cc1cc(F)ccc1CN1CCCC2(C1)OCCO2 ; measured Percent Effect: 1.71

Lookup result for CC(C)c1nc(C2CCCN2CC(=O)N2CCNC2=O)no1 (stereo not given) ; measured Percent Effect: -5.94

Lookup result for Cn1ncc2c1C(COCC1CC1)CN(Cc1ccc(F)cc1)C2 (stereo not given) ; measured Percent Effect: 23.2

Lookup result for CC(C)NC(=O)C1CN(C(=O)c2ccc(F)cc2)CC12CCOCC2 (stereo not given) ; measured Percent Effect: -8.73
